What IC50 was measured for each of the following?
# System: HDAC activity in primary mouse cortical cultures
# Assay Procedure: Whole-Cell Histone Deacetylase (HDAC) Inhibition Assay in Primary Mouse Cortical Cultures
# Assay type: cell-based
# Condition Context: whole-cell (WC), mouse cortical neurons; Table 9; read-out: HDAC Inhibition (IC50 μM) WC mouse cortical neurons

> print(dat)
                                   compound      value
1  O=C(NO)c1cnc(N2C[C@@H]3C[C@H]2CN3C(c2ccccc2)c2ccccc2)nc1  1 to 5 µM
2  Cc1cccc(N2CC3CC2CN3c2ccc(C(=O)NO)cc2)c1 (centres unmarked)  1 to 5 µM
3  O=C(NO)c1cnc(N2C[C@@H]3C[C@H]2CN3c2cc(C(F)(F)F)cc(C(F)(F)F)c2)nc1  1 to 5 µM
4  O=C(NO)c1cnc(N2C[C@@H]3C[C@H]2CN3c2cc(C(F)(F)F)nc3ccccc23)nc1     < 1 µM
5  O=C(NO)c1cnc(N2C[C@@H]3C[C@H]2CN3c2cc(C(F)(F)F)ccn2)nc1     < 1 µM
6  O=C(NO)c1cnc(N2C[C@@H]3C[C@H]2CN3C(=O)OCc2ccccc2)nc1     < 1 µM

Would you be so kind as to report IC50 for each listed record?
1. O=C(NO)c1cnc(N2C[C@@H]3C[C@H]2CN3c2cccc(C(F)(F)F)c2)s1
2. Cc1ccc(N2CC3CC2CN3c2ccc(C(=O)NO)cn2)cc1 (centres unmarked)
3. O=C(NO)c1ccc(N2C[C@H]3C[C@@H]2CN3c2cc(C(F)(F)F)ccn2)cc1
4. O=C(NO)c1cnc(N2C[C@@H]3C[C@H]2CN3c2ccc(C(F)(F)F)cc2F)nc1
5. Cc1ccccc1N1C[C@@H]2C[C@H]1CN2c1ncc(C(=O)NO)cn1
6. O=C(NO)c1cnc(N2C[C@@H]3C[C@H]2CN3C(=O)OC2CCCC2)nc1
7. O=C(NO)c1cnc(N2C[C@@H]3C[C@H]2CN3c2ccc(Cl)cc2)nc1
8. O=C(NO)c1ccc(N2C[C@@H]3C[C@H]2CN3c2cccc(C(F)(F)F)c2)nn1

["1 to 5 µM", "< 1 µM", "5 to 15 µM", "1 to 5 µM", "1 to 5 µM", "< 1 µM", "< 1 µM", "5 to 15 µM"]

Would you be so kind as to report IC50 for each listed record?
1. O=C(NO)c1cnc(N2C[C@@H]3C[C@H]2CN3c2cccc(SC(F)(F)F)c2)nc1
2. O=C(NO)c1cnc(N2C[C@@H]3C[C@H]2CN3Cc2ccccc2)nc1
3. N#Cc1cccc(N2CC3CC2CN3c2ncc(C(=O)NO)cn2)c1 (centres unmarked)
4. O=C(NO)c1cnc(N2C[C@@H]3C[C@H]2CN3C(=O)c2cccc(C(F)(F)F)c2)nc1

1 to 5 µM
1 to 5 µM
< 1 µM
1 to 5 µM

Would you be so kind as to report IC50 for each listed record?
1. O=C(NO)c1cnc(N2C[C@@H]3C[C@H]2CN3c2cccc(C(F)(F)F)n2)nc1
2. O=C(NO)c1cnc(N2C[C@@H]3C[C@H]2CN3c2ccc3nsnc3c2)nc1

< 1 µM
< 1 µM

Source listed as patent US20170000749A1.
